# Assayed system: NR2F6 (Homo sapiens, UniProt P10588)
# Construct: expressed in transfected cells; also transient transfection
# Sequence (P10588 whole entry): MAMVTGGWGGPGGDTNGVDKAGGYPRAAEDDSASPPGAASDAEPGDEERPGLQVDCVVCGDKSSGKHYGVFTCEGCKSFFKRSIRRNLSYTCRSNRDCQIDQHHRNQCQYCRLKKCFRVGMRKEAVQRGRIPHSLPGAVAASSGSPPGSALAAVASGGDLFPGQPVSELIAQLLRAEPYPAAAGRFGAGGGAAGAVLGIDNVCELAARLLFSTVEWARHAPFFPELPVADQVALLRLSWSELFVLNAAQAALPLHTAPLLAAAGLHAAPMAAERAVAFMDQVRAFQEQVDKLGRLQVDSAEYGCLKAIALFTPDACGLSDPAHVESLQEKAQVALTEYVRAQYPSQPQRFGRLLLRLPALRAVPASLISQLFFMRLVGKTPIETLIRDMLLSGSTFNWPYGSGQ
# Experiment notes: NR2F6 agonist screening, Firefly signal cmpd/DMSO
# Assay type: cell-based
# Test settings: C11 analogs follow set (Tables 2-10), repeat 2
Property name: Firefly, cmpd/DMSO repeat 2

COc1ccc2oc(=O)c(S(=O)(=O)c3ccc(C)c(C)c3)cc2c1: 0.8
Cc1cc(S(=O)(=O)c2cc3cc(Br)ccc3oc2=O)ccc1F: 5.1
Cc1ccc(S(=O)(=O)c2cc3cc(Br)ccc3oc2=O)cc1: 14.8

Ask | In one line, give reported Firefly, cmpd/DMSO repeat 2 of the entry COc1ccc2oc(=O)c(S(=O)(=O)c3cccc(Cl)c3)cc2c1 .
Reply | 3.7

Ask | Please supply the value of reported Firefly, cmpd/DMSO repeat 2 for the item O=c1oc2ccc(F)cc2cc1S(=O)(=O)c1ccc(Cl)cc1
Reply | 19.1

Ask | Give a short answer stating reported Firefly, cmpd/DMSO repeat 2 for COc1ccc(S(=O)(=O)c2cc3ccccc3oc2=O)cc1 .
Reply | 4.7

Ask | Using known records, supply Firefly, cmpd/DMSO repeat 2 for CC(C)(C)c1ccc(S(=O)(=O)c2cc3cc([N+](=O)[O-])ccc3oc2=O)cc1
Reply | 6.4

Ask | Kindly indicate its recorded Firefly, cmpd/DMSO repeat 2. Item: CC(C)c1ccc(S(=O)(=O)c2cc3cc(Cl)ccc3oc2=O)cc1
Reply | 12.0

Ask | Output Firefly, cmpd/DMSO repeat 2 of O=c1oc2cc(O)ccc2cc1S(=O)(=O)c1ccc(F)c(Cl)c1
Reply | 1.3

###

# Assayed system: NR2F6 (Homo sapiens, UniProt P10588)
# Construct: expressed in transfected cells; also transient transfection
# Experiment notes: NR2F6 agonist screening, Firefly signal cmpd/DMSO
# Type: cell-based
# Test settings: Table 11; repeat 1
Property name: Firefly, cmpd/DMSO repeat 1
Quick one: just the number, no unit, thanks!

Some solved entries appear below for comparison.
COc1cc(Br)cc2cc(S(=O)(=O)c3ccccc3)c(=O)oc12: 16.5
COc1cc(Br)cc2cc(S(=O)(=O)c3ccc(F)c(C)c3)c(=O)oc12: 2.2
COc1ccc(S(=O)(=O)c2cc3cc(F)cc(F)c3oc2=O)cc1: 31.3
COc1ccc(S(=O)(=O)c2cc3cc(Br)cc(OC)c3oc2=O)cc1: 6.0

Ask | State Firefly, cmpd/DMSO repeat 1 (NR2F6 (Homo sapiens, UniProt P10588)) of O=c1oc2c(Br)cc(Br)cc2cc1S(=O)(=O)c1ccc(Cl)cc1 .
Reply | 2.3

Ask | Please look at O=c1oc2c(F)cc(F)cc2cc1S(=O)(=O)c1ccc(Cl)cc1 and tell me its recorded Firefly, cmpd/DMSO repeat 1 on NR2F6 (Homo sapiens, UniProt P10588).
Reply | 8.5

Ask | Report measured Firefly, cmpd/DMSO repeat 1 on NR2F6 (Homo sapiens, UniProt P10588); entry: COc1cc(Br)cc2cc(S(=O)(=O)c3ccc(C(C)(C)C)cc3)c(=O)oc12
Reply | 1.5

###

# Assayed system: NR2F6 (Homo sapiens)
# Construct: expressed in transfected cells; also transient transfection
# Experiment notes: NR2F6 agonist screening, Firefly signal cmpd/DMSO
# Assay type: cell-based
# Test settings: Table 14; 10 uM
Property name: Firefly F4, cmpd/DMSO (mean)

Answered examples (6):
Cc1cc(NC(=O)CCS(=O)(=O)c2nc(-c3ccc4c(c3)OCO4)cc(C(F)(F)F)n2)no1: 0.5
CCOC(=O)c1cnc2c(C)cc(C)cc2c1NCCCN(C)C: 1.6
CCOC(=O)c1cnc2c(C)cccc2c1NCCCN(C)C: 2.5
Cc1cc(C)n2nc(CNS(=O)(=O)c3c(F)c(F)c(F)c(F)c3F)nc2n1: 0.8
O=C(COc1ccccc1C(=O)N1CCOCC1)NCCc1ccccc1: 1.4
Cc1cc(C)n2nc(CNS(=O)(=O)c3ccc(Cl)cc3)nc2n1: 1.1

Ask | Quickly give me recorded Firefly F4, cmpd/DMSO (mean) for CCOC(=O)c1cnc2c(C)cc(C)cc2c1NCc1ccccc1
Reply | 0.5

Ask | Answer with the recorded Firefly F4, cmpd/DMSO (mean) of Cc1cc(C)c2ncc(C(N)=O)c(NCCCN(C)C)c2c1 only.
Reply | 0.6

Ask | Report Firefly F4, cmpd/DMSO (mean), nothing else, for this compound: Cc1ccc(NC(=O)c2noc3c2CC(C(C)(C)C)CC3)cc1C (centres unmarked)
Reply | 0.9

Ask | Please list Firefly F4, cmpd/DMSO (mean) recorded for the compound Cc1ccn2cc(-c3ccc(F)cc3)cc2c1
Reply | 1.2

Ask | Give Firefly F4, cmpd/DMSO (mean) for the following compound: O=C(Nc1cccc(O)c1)c1cc(-c2ccc(Cl)c(Cl)c2)on1
Reply | 0.8

Ask | Look up and state reported Firefly F4, cmpd/DMSO (mean) for CCn1cc2c(n1)c(=O)n(Cc1ccccc1)c(=O)n2CC(=O)Nc1ccc(Br)cc1
Reply | 0.5

Ask | In one line, give reported Firefly F4, cmpd/DMSO (mean) of the entry COc1ccc(-c2cn3cccc(C)c3n2)cc1 .
Reply | 1.0

Ask | Give the reported value of Firefly F4, cmpd/DMSO (mean) for this record: Cc1ccc(-c2nc3ccccc3c(=O)[nH]2)cc1
Reply | 1.1
